These measurements were taken from patent US8211929B2.

Reported IC50 values for the following molecules.
biological target: IGF 3P (Homo sapiens, UniProt P08069); construct: human IGF1R kinase domain residues M954-C1367; made in house; host or cells: baculovirus expression (insect cells); assay: IGF1R kinase assay (LCCA), IGF 3P; type: biochemical; settings: IGF1R kinase LCCA assay
Sequence (P08069 954-1367): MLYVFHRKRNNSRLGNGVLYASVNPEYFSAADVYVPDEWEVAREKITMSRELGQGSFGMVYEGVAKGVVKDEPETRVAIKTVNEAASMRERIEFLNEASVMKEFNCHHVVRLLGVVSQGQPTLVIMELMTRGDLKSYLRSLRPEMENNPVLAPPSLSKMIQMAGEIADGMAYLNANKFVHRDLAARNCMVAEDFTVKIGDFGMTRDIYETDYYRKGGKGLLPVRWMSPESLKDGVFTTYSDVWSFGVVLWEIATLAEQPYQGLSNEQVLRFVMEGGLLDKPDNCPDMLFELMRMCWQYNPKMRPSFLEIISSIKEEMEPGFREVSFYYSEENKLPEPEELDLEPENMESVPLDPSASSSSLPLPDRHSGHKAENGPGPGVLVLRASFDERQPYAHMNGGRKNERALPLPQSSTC

As a guide, the following entries are already answered.
MOLECULE	IC50
FC(F)(F)Oc1ccc(Nc2ncc(Br)c(Nc3cc(C4CC4)[nH]n3)n2)c(Br)c1 [Example 237]	500 to 5000 nM
N#Cc1cccc(Nc2ncc(Br)c(Nc3cc(C4CC4)n[nH]3)n2)c1 [Example 196]	500 to 5000 nM

Identify measured IC50 corresponding to CC(C)(C)OC(=O)N1CC[C@H](NC(=O)c2cccc(Nc3ncc(Br)c(Nc4cc(C5CC5)n[nH]4)n3)c2)C1 [Example 141]
50 to 500 nM

Specify measured IC50 for Brc1cnc(NCc2cc(-c3ccccc3)cs2)nc1Nc1cc(C2CC2)n[nH]1 [Example 271] .
> 5000 nM

Please report the measured IC50 for Brc1cnc(NCCc2cccs2)nc1Nc1cc(C2CC2)n[nH]1 [Example 170]
500 to 5000 nM
